// data source = the supplement of paper PMC10127200

- Test system: A549
- experiment-summary: Euclidean distance of Cell Painting phenotypic profile (signed KS, 77 features) to DMSO centroid (dimensionless distance); higher = stronger phenotypic change vs DMSO (phenoactivity)
- condition-set: 48 h; 5 or 10 uM (library dependent)
Where a name gives a salt, the structure may show the parent alone.
attribute-measured: Euclidean distance

| molecule | attribute-measured | obs-value |
| --- | --- | --- |
| C=CCC(C(=O)NC(N)=O)C(C)C (stereo not given) | Euclidean distance | 0.684 |
| CC[C@H]1[C@@H]2C[C@H]3[C@@H]4N(C)c5ccccc5[C@]45C[C@@H]([C@@H]2[C@H]5O)N3[C@@H]1O | Euclidean distance | 0.849 |
| CCC12C=CCN3CC[C@@]4(c5ccc(OC)cc5N(C)[C@H]4[C@@](O)(C(=O)OC)[C@@H]1OC(C)=O)[C@@H]32 (stereo not given in full) | Euclidean distance | 0.491 |
| CC[C@@H]1/C=C/C=C/C[C@H](C)[C@H](O)[C@](C)(O)C(=O)[C@H](C)[C@@H](O)[C@H](C)C(=O)[C@H](C)[C@@H](O)[C@H](C)/C=C/C(=O)O[C@H]2[C@@H](C)[C@@H](CC1)O[C@@]1(CC[C@@H](C)[C@@H](C[C@H](C)O)O1)[C@@H]2C | Euclidean distance | 2.18 |
| CC(=O)O[C@H]1C[C@H](O[C@H]2[C@@H](O)C[C@H](O[C@H]3[C@@H](O)C[C@H](O[C@H]4CC[C@@]5(C)[C@H](CC[C@@H]6[C@@H]5C[C@@H](O)[C@]5(C)[C@@H](C7=CC(=O)OC7)CC[C@]65O)C4)O[C@@H]3C)O[C@@H]2C)O[C@H](C)[C@H]1O[C@@H]1O[C@H](CO)[C@@H](O)[C@H](O)[C@H]1O [Lanatoside C] | Euclidean distance | 5.41 |
| CNC(=O)Oc1cccc2ccccc12 | Euclidean distance | 1.3 |
| CN(C)NC(=O)CCC(=O)O [Daminozide] | Euclidean distance | 0.507 |
| C=CC(=O)N[C@H]1C=C(C)c2c(-c3cnc4ccccc4c3)c3c(N)ncnc3n2C1 | Euclidean distance | 1.6 |
| CCCCCCC(=O)O[C@H]1CC[C@H]2[C@@H]3CCC4=CC(=O)CC[C@]4(C)[C@H]3CC[C@]12C [Testosterone Enanthate] | Euclidean distance | 0.756 |
| CC(C)(C)NCC(O)c1ccccc1Cl (stereo not given) [Tulobuterol hydrochloride] | Euclidean distance | 0.768 |
| C#C[C@]1(OC(=O)CCCCCC)CC[C@H]2[C@@H]3CCC4=CC(=O)CC[C@@H]4[C@H]3CC[C@@]21C [Norethisterone Enanthate] | Euclidean distance | 2.5 |
| COc1ccc2c3c([nH]c2c1)C(C)=NCC3 | Euclidean distance | 0.845 |
| NCC(O)c1ccc(O)cc1 (stereo not given) [(+.-)-Octopamine HCl] | Euclidean distance | 0.639 |
| C[C@@]12N[C@@H](Cc3ccccc31)c1ccccc12 [(-)-MK 801 Maleate] | Euclidean distance | 1.63 |
| O=[N+]([O-])c1ncc[nH]1 | Euclidean distance | 1.17 |
